Molecular target: CSNK1D (human) (UniProt P48730)
Sequence (P48730 whole entry, looked up): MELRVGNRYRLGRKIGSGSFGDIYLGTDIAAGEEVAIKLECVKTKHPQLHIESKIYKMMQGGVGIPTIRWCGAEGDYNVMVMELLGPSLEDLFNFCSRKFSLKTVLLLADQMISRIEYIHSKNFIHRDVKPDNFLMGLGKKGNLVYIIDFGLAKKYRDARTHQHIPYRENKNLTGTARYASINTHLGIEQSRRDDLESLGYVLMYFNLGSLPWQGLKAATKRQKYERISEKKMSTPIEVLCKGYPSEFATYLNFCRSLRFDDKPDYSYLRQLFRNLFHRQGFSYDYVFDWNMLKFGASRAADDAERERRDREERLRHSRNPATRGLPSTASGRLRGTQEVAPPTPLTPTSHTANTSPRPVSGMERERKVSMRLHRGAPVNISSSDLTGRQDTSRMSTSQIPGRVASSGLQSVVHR
Test: KINOMEscan competition binding
Conditions: compound 10.0 µM
metricName: kinase still bound, per cent of control

> print(dat)
                                 smilesentry                result
 1      Nc1ncnc2c1c(-c1cccc(O)c1)cn2C1CCNCC1                    0%
 2  Cc1ccc(O)cc1Nc1ccnc(Nc2cccc(C(N)=O)c2)n1                    0%
 3      c1ccc(-c2n[nH]cc2-c2ccnc3ccccc23)nc1                    0%
 4  Cc1ccc(NC(=O)c2cccc(N3CCCCC3)c2)cc1-c1ccc(C(=O)NCC2CC2)cc1  no effect (inactive)
 5  Cc1cc(Nc2cc(N3CCN(C)CC3)nc(Sc3ccc(NC(=O)C4CC4)cc3)n2)[nH]n1  no effect (inactive)
 6   CC(=O)c1c(-c2ccncc2)[nH]c(-c2ccncc2)c1C                    0%
 7  CCS(=O)(=O)Nc1ccc2c(c1)[C@H](/C(=N/c1ccc(CN3CCCCC3)cc1)c1ccccc1)C(=O)N2  no effect (inactive)
 8             O=C1Nc2ccccc2/C1=C/c1ccc[nH]1                    0%
 9  Cc1ccc(C(=O)Nc2cccc(C(C)(C)C)c2)cc1-c1ccc(C(=O)NCC2CC2)cc1  no effect (inactive)
10  NC(=O)c1ccc(-c2cc(C(N)=O)c(N)c(-c3ccc(S(N)(=O)=O)cc3)c2)cc1  no effect (inactive)

----------
Target: MARK4 (human) (UniProt Q96L34)
Sequence (Q96L34 whole entry, looked up): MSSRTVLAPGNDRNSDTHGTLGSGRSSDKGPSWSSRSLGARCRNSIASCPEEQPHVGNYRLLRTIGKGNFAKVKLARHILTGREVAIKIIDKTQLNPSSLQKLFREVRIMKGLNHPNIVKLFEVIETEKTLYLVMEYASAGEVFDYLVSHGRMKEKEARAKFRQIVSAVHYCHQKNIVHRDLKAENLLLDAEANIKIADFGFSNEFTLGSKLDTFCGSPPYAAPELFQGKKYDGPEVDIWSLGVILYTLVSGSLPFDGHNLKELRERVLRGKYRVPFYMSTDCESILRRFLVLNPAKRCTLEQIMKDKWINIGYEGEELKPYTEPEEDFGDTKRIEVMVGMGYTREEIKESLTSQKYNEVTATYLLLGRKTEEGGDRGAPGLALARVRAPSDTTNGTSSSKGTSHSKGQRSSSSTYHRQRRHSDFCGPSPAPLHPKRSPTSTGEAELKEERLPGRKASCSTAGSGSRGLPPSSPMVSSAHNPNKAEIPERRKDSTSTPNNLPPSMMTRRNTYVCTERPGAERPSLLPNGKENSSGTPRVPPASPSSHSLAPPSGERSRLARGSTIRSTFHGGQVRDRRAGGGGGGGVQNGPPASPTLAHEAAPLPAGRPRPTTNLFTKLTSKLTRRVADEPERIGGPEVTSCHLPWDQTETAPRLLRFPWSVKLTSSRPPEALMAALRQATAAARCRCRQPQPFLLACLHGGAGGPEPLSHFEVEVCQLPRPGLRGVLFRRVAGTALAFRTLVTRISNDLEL
Experiment: KINOMEscan competition binding
Conditions: compound 10.0 µM
metricName: kinase still bound, per cent of control

> print(dat)
                                smilesentry                result
1    CN(C)c1ccc(-c2cc3ncccc3c(NCCCCN)n2)cc1  no effect (inactive)
2  Cc1ccc(O)cc1Nc1ccnc(Nc2cccc(C(N)=O)c2)n1  no effect (inactive)
3  Cc1cc(Nc2cc(N3CCN(C)CC3)nc(Sc3ccc(NC(=O)C4CC4)cc3)n2)[nH]n1  no effect (inactive)
4  NC(=O)c1ccc(Nc2cc(-c3ccc(F)cc3)[nH]n2)cc1  no effect (inactive)
5  CCS(=O)(=O)Nc1ccc2c(c1)[C@H](/C(=N/c1ccc(CN3CCCCC3)cc1)c1ccccc1)C(=O)N2                    0%

----------
Target: PRKCH (human) (UniProt P24723)
Sequence (P24723 whole entry, looked up): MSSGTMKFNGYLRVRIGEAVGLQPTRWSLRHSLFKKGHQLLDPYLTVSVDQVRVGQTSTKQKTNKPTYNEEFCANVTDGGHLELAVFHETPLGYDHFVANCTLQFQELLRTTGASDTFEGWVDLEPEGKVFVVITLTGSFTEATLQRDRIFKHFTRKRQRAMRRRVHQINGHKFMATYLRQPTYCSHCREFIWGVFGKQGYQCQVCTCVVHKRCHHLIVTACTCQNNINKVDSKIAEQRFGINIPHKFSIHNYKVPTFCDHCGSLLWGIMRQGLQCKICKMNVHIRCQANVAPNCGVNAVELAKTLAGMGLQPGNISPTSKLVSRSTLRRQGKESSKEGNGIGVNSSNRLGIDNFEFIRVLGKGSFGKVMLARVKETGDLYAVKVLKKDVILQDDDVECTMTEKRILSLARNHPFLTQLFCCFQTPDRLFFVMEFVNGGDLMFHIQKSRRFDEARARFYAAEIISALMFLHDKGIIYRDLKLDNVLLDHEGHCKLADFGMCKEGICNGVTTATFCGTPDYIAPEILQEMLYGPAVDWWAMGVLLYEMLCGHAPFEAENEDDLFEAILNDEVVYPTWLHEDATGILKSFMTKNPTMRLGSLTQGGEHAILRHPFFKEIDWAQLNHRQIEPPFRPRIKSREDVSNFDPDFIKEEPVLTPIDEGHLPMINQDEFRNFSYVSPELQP
Assay: KINOMEscan competition binding
Details: compound 10.0 µM
metricName: kinase still bound, per cent of control

> print(dat)
                                 smilesentry                result
 1  NC(=O)c1ccc(-c2cc(C(N)=O)c(N)c(-c3ccc(S(N)(=O)=O)cc3)c2)cc1  no effect (inactive)
 2  Cc1ccc(C(=O)Nc2cccc(C(C)(C)C)c2)cc1-c1ccc(C(=O)NCC2CC2)cc1  no effect (inactive)
 3             O=C1Nc2ccccc2/C1=C/c1ccc[nH]1  no effect (inactive)
 4  N#Cc1ccc(-c2cnc3[nH]cc(NC(=O)c4cccnc4)c3c2)cc1  no effect (inactive)
 5      Nc1ncnc2c1c(-c1cccc(O)c1)cn2C1CCNCC1                    0%
 6  O=C(Nc1n[nH]c2nc(-c3cccc(O)c3)ccc12)C1CC1  no effect (inactive)
 7  Cc1cc(Nc2cc(N3CCN(C)CC3)nc(Sc3ccc(NC(=O)C4CC4)cc3)n2)[nH]n1  no effect (inactive)
 8    CN(C)c1ccc(-c2cc3ncccc3c(NCCCCN)n2)cc1  no effect (inactive)
 9  NC(=O)c1ccc(Nc2cc(-c3ccc(F)cc3)[nH]n2)cc1  no effect (inactive)
10  CCS(=O)(=O)Nc1ccc2c(c1)[C@H](/C(=N/c1ccc(CN3CCCCC3)cc1)c1ccccc1)C(=O)N2                 19.2%
11  Cc1ccc(NC(=O)c2cccc(N3CCCCC3)c2)cc1-c1ccc(C(=O)NCC2CC2)cc1  no effect (inactive)
12  Cc1ccc(O)cc1Nc1ccnc(Nc2cccc(C(N)=O)c2)n1  no effect (inactive)
13      c1ccc(-c2n[nH]cc2-c2ccnc3ccccc23)nc1  no effect (inactive)
